All values here come from patent US20240270698A2.

Entries and their Cell viability (% of Con. 10 μM) HepG2 values follow.
# System: HepG2 cancer cells
# TEST_NAME: Anticancer activity, cell viability by CCK-8, HepG2
# Type: cell-based
# CONDITION_SET: HepG2, 10 μM, 72 hours

{"MOLECULE_SMILES": "CP(C)(=O)c1ccccc1Nc1nc(Nc2ccc3[nH]nc(Br)c3c2)ncc1Cl", "Cell viability (% of Con. 10 μM) HepG2": "33 % of Con."}
{"MOLECULE_SMILES": "Cc1ccc(Nc2ncc(Cl)c(Nc3ccccc3P(C)(C)=O)n2)c2[nH]cc(C#N)c12", "Cell viability (% of Con. 10 μM) HepG2": "30 % of Con."}
{"MOLECULE_SMILES": "CP(C)(=O)c1ccccc1Nc1nc(NCc2ccccc2)ncc1Cl", "Cell viability (% of Con. 10 μM) HepG2": "108 % of Con."}
{"MOLECULE_SMILES": "CP(C)(=O)c1ccccc1Nc1nc(Nc2cnc3[nH]nc(-c4cccnc4F)c3c2)ncc1Cl", "Cell viability (% of Con. 10 μM) HepG2": "27 % of Con."}
{"MOLECULE_SMILES": "CP(C)(=O)c1ccccc1Nc1nc(Nc2ccc3[nH]ncc3c2)ncc1Cl", "Cell viability (% of Con. 10 μM) HepG2": "31 % of Con."}
{"MOLECULE_SMILES": "CP(C)(=O)c1ccccc1Nc1nc(Nc2ccc3[nH]nc(-c4ccc(CO)o4)c3c2)ncc1Cl", "Cell viability (% of Con. 10 μM) HepG2": "56 % of Con."}
{"MOLECULE_SMILES": "CC(C)n1cc(-c2n[nH]c3ccc(Nc4ncc(Cl)c(Nc5ccccc5P(C)(C)=O)n4)cc23)cn1", "Cell viability (% of Con. 10 μM) HepG2": "42 % of Con."}
{"MOLECULE_SMILES": "CP(C)(=O)c1ccccc1Nc1nc(Nc2ccc3c(c2)CN(C(=O)C(F)(F)F)C3)ncc1Cl", "Cell viability (% of Con. 10 μM) HepG2": "35 % of Con."}

----------
# TARGET_OR_TEST_SYSTEM: human recombinant MLK3 protein (Homo sapiens, UniProt Q16584)
# Sequence (Q16584 whole entry): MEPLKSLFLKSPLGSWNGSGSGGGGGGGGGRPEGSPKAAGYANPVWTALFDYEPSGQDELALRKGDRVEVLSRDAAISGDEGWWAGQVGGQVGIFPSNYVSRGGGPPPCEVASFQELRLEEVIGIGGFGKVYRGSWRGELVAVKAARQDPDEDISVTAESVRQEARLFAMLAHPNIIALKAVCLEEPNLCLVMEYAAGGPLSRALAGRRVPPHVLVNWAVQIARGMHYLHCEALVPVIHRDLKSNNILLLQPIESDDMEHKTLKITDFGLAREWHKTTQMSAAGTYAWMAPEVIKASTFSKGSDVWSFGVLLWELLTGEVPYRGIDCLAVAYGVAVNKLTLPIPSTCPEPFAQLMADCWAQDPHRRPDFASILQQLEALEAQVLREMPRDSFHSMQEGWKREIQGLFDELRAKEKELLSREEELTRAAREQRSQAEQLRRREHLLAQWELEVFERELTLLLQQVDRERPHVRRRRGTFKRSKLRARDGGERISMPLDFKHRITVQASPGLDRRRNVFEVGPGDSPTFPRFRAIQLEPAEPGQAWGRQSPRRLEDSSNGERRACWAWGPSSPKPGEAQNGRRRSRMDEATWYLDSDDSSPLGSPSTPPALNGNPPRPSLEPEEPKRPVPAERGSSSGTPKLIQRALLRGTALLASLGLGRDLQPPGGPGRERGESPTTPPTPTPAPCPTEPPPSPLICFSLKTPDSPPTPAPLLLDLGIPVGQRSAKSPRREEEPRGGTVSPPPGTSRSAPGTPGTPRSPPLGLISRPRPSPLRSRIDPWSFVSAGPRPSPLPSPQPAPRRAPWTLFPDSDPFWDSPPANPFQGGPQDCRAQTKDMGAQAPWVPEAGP
# TEST_NAME: MLK3 kinase activity assay (Eurofins, gamma-33P-ATP, filtermat scintillation counting)
# CONDITION_SET: human recombinant MLK3, 120 minutes at room temperature

{"MOLECULE_SMILES": "Cc1cc(Nc2ncc(Cl)c(Nc3ccccc3P(C)(C)=O)n2)ccn1", "IC50": "> 1000 nM"}
{"MOLECULE_SMILES": "CC(C)Oc1cc(F)cc(-c2n[nH]c3ccc(Nc4ncc(Cl)c(Nc5ccccc5P(C)(C)=O)n4)cc23)c1", "IC50": "1 to 10 nM"}
{"MOLECULE_SMILES": "CP(C)(=O)c1ccccc1Nc1nc(Nc2ccc3[nH]nc(-c4cccc([N+](=O)[O-])c4)c3c2)ncc1Cl", "IC50": "1 to 10 nM"}
{"MOLECULE_SMILES": "CP(C)(=O)c1ccccc1Nc1nc(Nc2cccc3[nH]ccc23)ncc1Cl", "IC50": "10 to 100 nM"}
{"MOLECULE_SMILES": "Cn1ncc2cc(Nc3ncc(Cl)c(Nc4ccccc4P(C)(C)=O)n3)cnc21", "IC50": "10 to 100 nM"}
{"MOLECULE_SMILES": "CP(C)(=O)c1ccccc1Nc1nc(Nc2ccc3[nH]nc(-c4ccc(CO)o4)c3c2)ncc1Cl", "IC50": "1 to 10 nM"}
{"MOLECULE_SMILES": "CP(C)(=O)c1ccccc1Nc1nc(Nc2ccc3c(c2)CN(C(=O)C(F)(F)F)CC3)ncc1Cl", "IC50": "1 to 10 nM"}
{"MOLECULE_SMILES": "CP(C)(=O)c1ccccc1Nc1nc(Nc2ccc3[nH]nc(-c4ccccc4)c3c2)ncc1Cl", "IC50": "1 to 10 nM"}
{"MOLECULE_SMILES": "CP(C)(=O)c1ccccc1Nc1nc(Nc2ccc3[nH]nc(-c4cccc(O)c4)c3c2)ncc1Cl", "IC50": "1 to 10 nM"}
{"MOLECULE_SMILES": "CP(C)(=O)c1ccccc1Nc1nc(Nc2cccc3cc[nH]c23)ncc1Cl", "IC50": "10 to 100 nM"}
{"MOLECULE_SMILES": "Cc1ccc(-c2n[nH]c3ccc(Nc4ncc(Cl)c(Nc5ccccc5P(C)(C)=O)n4)cc23)cc1Cl", "IC50": "1 to 10 nM"}
{"MOLECULE_SMILES": "CP(C)(=O)c1ccccc1Nc1nc(NCc2ccccc2)ncc1Cl", "IC50": "> 1000 nM"}
{"MOLECULE_SMILES": "CP(C)(=O)c1ccccc1Nc1nc(Nc2ccncc2)ncc1Cl", "IC50": "> 1000 nM"}
{"MOLECULE_SMILES": "CP(C)(=O)c1ccccc1Nc1nc(Nc2ccc3[nH]nc(-c4cccnc4F)c3c2)ncc1Cl", "IC50": "1 to 10 nM"}
{"MOLECULE_SMILES": "CP(C)(=O)c1ccccc1Nc1nc(Nc2ccc3[nH]nc(-c4ccc(C#N)cc4)c3c2)ncc1Cl", "IC50": "1 to 10 nM"}
{"MOLECULE_SMILES": "CC(C)(C)OC(=O)N1CC=C(c2n[nH]c3ccc(Nc4ncc(Cl)c(Nc5ccccc5P(C)(C)=O)n4)cc23)CC1", "IC50": "1 to 10 nM"}
